Taken from paper PMC5363373.

For each of the compounds below, state its % Intact of 89Zr-complexes.
experiment: In vitro EDTA challenge study; format: physicochemical; details: EDTA 500-fold, pH 5.0, 37 C, 1 h
One number for each entry, in %.

>>> endpoint_result("CC(=O)N1CCCCCNC(=O)CCC(=O)N2CCCCCNC(=O)CCC(=O)N(CCCCCN)[O][89Zr+]([O]1)[O]2 [89Zr-DFO, reference compound]")
33.9
>>> endpoint_result("O=C1CN2CCN3CCN4CCN(CC2)CC(=O)[O][89Zr]([O]1)([O]C(=O)C3)[O]C(=O)C4 [89Zr-DOTA]")
100
>>> endpoint_result("O=P1(O)CN2CCN3CCN4CCN(CC2)CP(=O)(O)[O][89Zr]([O]1)([O]P(=O)(O)C3)[O]P(=O)(O)C4 [89Zr-DOTP]")
97.4

Any idea what % Intact of 89Zr-complexes was measured for NC(=O)CN1CCN(CC(N)=O)CCN(CC(N)=O)CCN(CC(N)=O)CC1.[89Zr+4] [89Zr-DOTAM] ?
97.5

---

experiment: In vitro metal competition study; format: physicochemical; conditions: Mg2+, PBS pH 7.4, 37 C, 1 d
experimental-endpoint: % Intact of 89Zr-complexes (%)
Answers are plain numbers, in %.

For orientation, consider the following solved cases.
>>> endpoint_result("O=C1CN2CCN3CCN4CCN(CC2)CC(=O)[O][89Zr]([O]1)([O]C(=O)C3)[O]C(=O)C4 [89Zr-DOTA]")
100
>>> endpoint_result("O=P1(O)CN2CCN3CCN4CCN(CC2)CP(=O)(O)[O][89Zr]([O]1)([O]P(=O)(O)C3)[O]P(=O)(O)C4 [89Zr-DOTP]")
99.4
>>> endpoint_result("NC(=O)CN1CCN(CC(N)=O)CCN(CC(N)=O)CCN(CC(N)=O)CC1.[89Zr+4] [89Zr-DOTAM]")
90.5

Any idea what % Intact of 89Zr-complexes was measured for CC(=O)N1CCCCCNC(=O)CCC(=O)N2CCCCCNC(=O)CCC(=O)N(CCCCCN)[O][89Zr+]([O]1)[O]2 [89Zr-DFO, reference compound] ?
98.6

---

For each of the compounds below, state its % Intact of 89Zr-complexes.
Assay: In vitro metal competition study
Type: physicochemical
Details: Zn2+, PBS pH 7.4, 37 C, 4 d
Method: In vitro Metal Competition study. To a solution of metal cations [iron (III) chloride, cobalt (II) chloride, zinc (II) chloride, copper (II) chloride, magnesium (II) chloride, gallium (III) nitrate, gadolinium (III) chloride] (1 mM, 200 µL), was added 89Zr-labeled complex (0.1 mM, 10 µL, 80 μCi, 2.96 MBq) in PBS, pH 7.4. […] Dissociation of 89Zr from 89Zr-complexes was monitored by radio-TLC at 2 h, 1 d, 4 d and 7 d time point. […]
Give bare numbers, in %.

For orientation, consider the following solved cases.
>>> endpoint_result("O=C1CN2CCN3CCN4CCN(CC2)CC(=O)[O][89Zr]([O]1)([O]C(=O)C3)[O]C(=O)C4 [89Zr-DOTA]")
100
>>> endpoint_result("NC(=O)CN1CCN(CC(N)=O)CCN(CC(N)=O)CCN(CC(N)=O)CC1.[89Zr+4] [89Zr-DOTAM]")
71.9

Batch: % Intact of 89Zr-complexes for all items listed.
1. CC(=O)N1CCCCCNC(=O)CCC(=O)N2CCCCCNC(=O)CCC(=O)N(CCCCCN)[O][89Zr+]([O]1)[O]2 [89Zr-DFO, reference compound]
2. O=P1(O)CN2CCN3CCN4CCN(CC2)CP(=O)(O)[O][89Zr]([O]1)([O]P(=O)(O)C3)[O]P(=O)(O)C4 [89Zr-DOTP]

97.7
89.4
